Entry source: paper PMC8809517

# Tested on: GFP-9S (synthetic construct)
# Assay Text: HRP pulldown
# Condition Summary: HRP: 50 mM Tris pH 8, 150 mM NaCl, 1 mM bME, 50 ug/ml BSA, 3 ug/ml yeast RNA, 0.5% heparin, 2 nM RNA; ITC (25 C) and FP: Tris pH 8, 200 mM KCl, 5% glycerol …
pKd: −log10 of the molar value.

Entry Sequence	pKd
AUUACACGUGA [Cy5-rpoA]	7.92
